system: T1, HLA-A2/E6(29-38) tetramer (human; HPV 16)
T1 construct: also called E6(29-38) peptide-MHC tetramer; E6 tet
assay.comment: flow cytometry, tetramer + anti-CD8; transfected mix of CD8- and CD8+ Jurkat-derived cells;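 further: CD4+ and CD4+/CD8+ cell mixtures transiently given TCR plasmids, analysed 48 h post-transfection by flow cytometry with E6(29-38)–HLA-A*02:01 tetramer plus anti-CD8 antibody co-stain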
reported.metric: % cells E6 tet+/CD8+ quadrant (%)
Use % as the unit, but write only the number.

Exercise: Return % cells E6 tet+/CD8+ quadrant for the following binder: TCR 20 (codon-optimized, cysteine-modified) (TCR, V domains shown) V domain 1: AQKVTQAQTEISVVEKEDVTLDCVYETRDTTYYLFWYKQPPSGELVFLIRRNSFDEQNEISGRYSWNFQKSTSSFNFTITASQVVDSAVYFCALWTGANNLFFGTGTRLTVIP V domain 2: GAVVSQHPSRVICKSGTSVKIECRSLDFQATTMFWYRQFPKQSLMLMATSNEGSKATYEQGVEKDKFLINHASLTLSTLTVTSAHPEDSSFYICSASSLARRSYEQYFGPGTRLTVTE
Key: 38.2

Exercise: Output % cells E6 tet+/CD8+ quadrant of TCR 30 (codon-optimized, cysteine-modified) (TCR, V domains shown) V domain 1: DAKTTQPPSMDCAEGRAANLPCNHSTISGNEYVYWYRQIHSQGPQYIIHGLKNNETNEMASLIITEDRKSSTLILPHATLRDTAVYYCIVRGTSVLQGNEKLTFGTGTRLTIIP V domain 2: EPEVTQTPSHQVTQMGQEVILRCVPISNHLYFYWYRQILGQKVEFLVSFYNNEISEKSEIFDDQFSVERPDGSNFTLKIRSTKLEDSAMYFCASSRQPSSGNTIYFGEGSWLTVVE
Key: 31

Exercise: Tell me % cells E6 tet+/CD8+ quadrant reported for TCR 25 (codon-optimized, cysteine-modified) (TCR, V domains shown) V domain 1: AQKITQTQPGMFVQEKEAVTLDCTYDTSDQSYGLFWYKQPSSGEMIFLIYQGSYDEQNATEGRYSLNFQKARKSANLVISASQLGDSAMYFCAMREGSLTGGGNKLTFGTGTQLKVEL V domain 2: DVKVTQSSRYLVKRTGEKVFLECVQDMDHENMFWYRQDPGLGLRLIYFSYDVKMKEKGDIPEGYSVSREKKERFSLILESASTNQTSMYLCASSLWGQSNQPQHFGDGTRLSILE
Key: 34
